# Tested on: SW-620 colon
# measurementDescription: NCI-60 one-dose screen, 48 h
# testParameters: 10 µM unless noted
Compounds without any hit were thinned out: in the full panel of roughly 83,000, 20% have a hit. The source made the active and inactive calls. The calls were made as follows: active = growth percent below 10; inactive = the rest.
Your answer must be one of the following: yes = active, no = inactive

Reference set, count: 5
[[record]]
compound = "O=C(Nc1ccc2c(c1)OCCO2)C(=O)c1c[nH]c2ccccc12"
categorylabel = "no"

[[record]]
compound = "CCC(C)/C(=C\\C#N)NCCCN/C(=C/C#N)C(C)CC (stereo unspecified)"
categorylabel = "no"

[[record]]
compound = "CC(C)(C)n1cc(-c2ccnc(NCCCNS(=O)(=O)c3ccc(Cl)cc3)c2)c(-c2cccc(O)c2)n1"
categorylabel = "yes"

[[record]]
compound = "COc1cc(/C=C/C(=O)c2ccc(Nc3ncnc4cc(OC)c(OC)cc34)cc2)cc(OC)c1"
categorylabel = "no"

[[record]]
compound = "O=C(CN1CCN(c2cc3c(cc2F)c(=O)c(C(=O)N/N=C/c2ccccc2O)cn3C2CC2)CC1)N/N=C\\c1ccccc1O"
categorylabel = "no"


## Input Entry O=C(Nc1cccc(-n2cc(-c3ccncc3)c(-c3ccc(Cl)c(O)c3)n2)c1)c1ccc(N2CCOCC2)c(C(F)(F)F)c1 : call = ?
## Output yes

## Input Entry C=C[C@@H]1C[C@H](O)Cc2c(C)cc(C)cc2N1 : call = ?
## Output no

## Input Entry COc1ccncc1S(=O)(=O)NC(=O)Nc1ccc(Cl)c(Cl)c1 : call = ?
## Output no

## Input Entry NC1=NN(O)C2=CC([N+](=O)[O-])C=CC2=N1 (stereo unspecified) : call = ?
## Output no

## Input Entry COc1cccc(CC(C)=C(c2ccc(OCCN(C)C)cc2)c2ccc(OCCN(C)C)cc2)c1 : call = ?
## Output yes

## Input Entry COc1ccc2c(c1)NC1=C(C(=O)OC1)C2c1cc(OC)c2c(c1)OCO2 (stereo unspecified) : call = ?
## Output no

## Input Entry CC(C)(C)Nc1c(-c2cccs2)nc2ncccn12 : call = ?
## Output no

## Input Entry COc1ccc(Nc2nn3c(C)cc(C)nc3c2C(=O)Nc2ccc(C)cc2)c(OC)c1 : call = ?
## Output no

## Input Entry O=C(CSC1CCc2ccccc21)N/N=C/c1ccccc1O (stereo unspecified) : call = ?
## Output no

## Input Entry O=S(=O)(NCCNc1nccc(-c2c(-c3ccc(O)cc3)nc3sccn23)n1)c1cccc2ccccc12 : call = ?
## Output no

## Input Entry CN(C)c1oc(C2OC2c2ccccc2)nc1C#N (stereo unspecified) : call = ?
## Output no

## Input Entry Brc1cccc(-c2cc(-c3ccc4nccnc4c3)[nH]n2)c1 : call = ?
## Output no

## Input Entry CCO/C=N/C1=C(C#N)C(c2ccc(Cl)cc2)c2c(c3ccccc3n(C)c2=O)O1 (stereo unspecified) : call = ?
## Output no

## Input Entry O=C(Nc1ccc(Cl)c(Cl)c1)NS(=O)(=O)c1cnccc1Oc1ccc(F)cc1 : call = ?
## Output no

## Input Entry Brc1ccc(-c2[nH]ncc2-c2c[nH]c3ccccc23)cc1 : call = ?
## Output no

## Input Entry COc1ccc2c(c1)[nH]c(=O)c1c3cc(OC)ccc3cn21 : call = ?
## Output yes
